test system: HepG2 cells; test: Cytotoxicity in HepG2 cells (intracellular ATP, ATPlite, 48 h); assay type: cell-based, human; conditions: HepG2 cells; IC50 per ratio column head; unit inferred
Assign log10 of IC50 to each entry below.
In our notation, the value equals log10 of IC50 in µM.

| COMPOUND | PROPERTY MEASURED | OBSERVED RESULT |
| --- | --- | --- |
| CC(C)CNCc1ccc(-c2ccc(CN(CCCN3CCN(C)CC3)C(=O)CCC3CCCC3)cc2)cc1 | log10 of IC50 | 0.73 |
| COc1c(OC)c(OC)c2ccccc2c1CNCCCCCCNCc1c(OC)c(OC)c(OC)c2ccccc12 | log10 of IC50 | 0.51 |
| Cc1cc(F)ccc1-c1nc(NCC(O)CNCCc2ccccc2)nc2c1ccc(=O)n2-c1c(F)cccc1F (stereo not drawn) | log10 of IC50 | 0.93 |
| C[C@H](Cc1ccc(C[C@@H](C)NC[C@H](O)c2cccc(Cl)c2)cc1)NC[C@H](O)COc1ccccc1 | log10 of IC50 | 0.67 |

Batch request: log10 of IC50 per item, same order as input.
1. O=S(=O)(NCCN1CCCC1)c1cccc(-c2ccc(CNC3Cc4ccccc4C3)cc2)c1
2. ON=C1CCc2cc(-c3cc(-c4ccc(OC5CCNCC5)cc4)oc3-c3ccncc3)ccc21
3. COC(=O)c1sc(-c2ccc(Cl)cc2)cc1N(CCCN1CCC(N2CCCCC2)CC1)S(=O)(=O)c1ccc(C)cc1
4. CN1CCN(CCNc2c3ccccc3nc3c2ccc2ccccc23)CC1
5. CCN(CC)CCCn1c(N)c(-c2nc3ccccc3[nH]2)c2nc(C#N)c(C#N)nc21

RESULT:
1. 0.90
2. 0.88
3. 0.64
4. 0.82
5. 0.94

Batch request: log10 of IC50 per item, same order as input.
1. CN(C)CCNCc1ccc(-c2ccc3c(Nc4ccc(Oc5ccccc5)cc4)ccnc3c2)o1
2. COc1ccccc1CCNc1nc(C)cc(N[C@@H](Cc2ccccc2)C(=O)NCCOc2ccccc2)n1
3. CCCCCOc1ccc(C(O)C(CCC(CN2CCCCCC2)C(O)c2ccc(OCCCCC)cc2)CN2CCCCCC2)cc1 (stereo not drawn)
4. CC(CCCC(=O)Nc1ccc(CC(C)NCCc2cccc(Cl)c2)cc1)NCCc1cccc(Cl)c1 (stereo not drawn)

RESULT:
[0.88, 1.05, 0.83, 0.65]

QUERY: Requested read-out: log10 of IC50. Entry: COc1ccc2c(c1CCNCCCCNCCc1c(OC)ccc3c1CCCC3)CCCC2
RESULT: -0.12
